Target: Muscarinic acetylcholine receptor M1 (Homo sapiens) (UniProt P11229)
Sequence (whole entry): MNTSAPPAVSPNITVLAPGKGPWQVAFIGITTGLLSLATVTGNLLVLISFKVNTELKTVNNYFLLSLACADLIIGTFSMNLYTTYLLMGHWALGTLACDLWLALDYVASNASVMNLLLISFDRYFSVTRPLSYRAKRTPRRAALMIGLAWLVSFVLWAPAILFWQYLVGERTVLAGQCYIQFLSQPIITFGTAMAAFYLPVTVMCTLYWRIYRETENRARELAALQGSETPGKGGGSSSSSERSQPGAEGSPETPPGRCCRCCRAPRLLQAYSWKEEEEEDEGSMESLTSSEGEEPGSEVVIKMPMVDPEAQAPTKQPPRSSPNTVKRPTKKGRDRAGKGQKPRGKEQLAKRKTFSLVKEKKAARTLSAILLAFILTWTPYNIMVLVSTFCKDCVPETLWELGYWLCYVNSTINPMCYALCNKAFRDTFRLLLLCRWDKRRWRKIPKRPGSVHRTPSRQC
Experiment: Cooperativity with acetylcholine at human muscarinic acetylcholine receptor M1
Measured Cooperativity accompanies every entry in the list below.
// response body must contain only the number

Note to self: Cooperativity of COc1cc2c(cc1OC)[C@@]13CC[N+]4(N)CC5=CCO[C@H]6CC(=O)N2[C@H]1[C@H]6[C@H]5C[C@@H]34 (some centres not stated) with Muscarinic acetylcholine receptor M1 (Homo sapiens) (UniProt P11229) was 0.8

Noted Cooperativity for COc1cc2c(cc1OC)[C@@]13CC[N+]4([O-])CC5=CCO[C@H]6CC(=O)N2[C@H]1[C@H]6[C@H]5C[C@@H]34 (some centres not stated) , tested on Muscarinic acetylcholine receptor M1 (Homo sapiens) (UniProt P11229): 1.19

Measured Cooperativity for this entry C[N+]12CC[C@@]34c5ccccc5N5C(=O)C[C@@H]6OCC=C(C1)[C@H](C[C@@H]32)[C@@H]6[C@H]54 (some centres not stated) on Muscarinic acetylcholine receptor M1 (Homo sapiens) (UniProt P11229): 0.8

Cooperativity of COc1cc2c(cc1OC)[C@@]13CC[N+]4(Cc5ccccc5)CC5=CCO[C@H]6CC(=O)N2[C@H]1[C@H]6[C@H]5C[C@@H]34 (some centres not stated) , assay on Muscarinic acetylcholine receptor M1 (Homo sapiens) (UniProt P11229), is 0.8

Fill in: Muscarinic acetylcholine receptor M1 (Homo sapiens) (UniProt P11229) Cooperativity for N#CC[N+]12CC[C@@]34c5ccccc5N5C(=O)C[C@@H]6OCC=C(C1)[C@H](C[C@@H]32)[C@@H]6[C@H]54 (some centres not stated) = 0.8

Data origin, for the record: ChEMBL document CHEMBL1132569
